These measurements were taken from patent US20250059199A1.

Assay: Hygroscopicity by dynamic vapor sorption (DVS) test
Type: physicochemical
Details: after DVS at 25° C.
Where a name gives a salt, the structure may show the parent alone.
Assay Endpoint: Form and crystallinity after the DVS test

>  <Compound>
CC(=O)Nc1cc(Nc2cc(C3CCOCC3)cc(S(C)(=O)=O)n2)c(-c2ccc3c(n2)OCC(C)(C)O3)cn1 [Compound 1 hydrochloride Form D]

>  <Observed Value>
No Form changed

$$$$
>  <Compound>
CC(=O)Nc1cc(Nc2cc(C3CCOCC3)cc(S(C)(=O)=O)n2)c(-c2ccc3c(n2)OCC(C)(C)O3)cn1 [Compound 1 hydrochloride Form C]

>  <Observed Value>
No Form changed

$$$$
